Recorded values, source patent US12448383B2.

Exercise: state measured Stability at pH2, 9 hr for each of the compounds provided.
Assay: Stability in pH2 buffered solution
Format: physicochemical
Conditions: pH2 phosphate buffer, 40° C., 9 hr
Entry rule: numbers only, all in % AN.

Given the compound "CC(C)OC(=O)OC[C@H]1O[C@@](C#N)(c2ccc3c(N)ncnn23)[C@H](OC(=O)C(C)C)[C@@H]1OC(=O)C(C)C" , write its reported Stability at pH2, 9 hr.
100.0

Fill in Stability at pH2, 9 hr for record "CC(C)OC(=O)OC[C@H]1O[C@@](C#N)(c2ccc3c(N)ncnn23)[C@H](O)[C@@H]1O"
98.4

Supply recorded Stability at pH2, 9 hr for "COC(=O)OC[C@H]1O[C@@](C#N)(c2ccc3c(N)ncnn23)[C@H](OC(C)=O)[C@@H]1OC(C)=O" here.
95.2

Recall and state the measured Stability at pH2, 9 hr for "CCOC(=O)OC[C@H]1O[C@@](C#N)(c2ccc3c(N)ncnn23)[C@H](OC(C)=O)[C@@H]1OC(C)=O" .
95.5

---

Experiment: GI S9 stability - no PMSF
Type: in vitro ADME
Conditions: pH 7.4; human intestinal S9, PMSF-free; read-out: GIS9-HUMAN-NoPMSF T1/2
Quick rule for you: half-life at 2 µM at 50 s or higher means condition met, lower means condition not met.

I'd appreciate it if you could say whether "CC(C)OC(=O)OC[C@H]1O[C@@](C#N)(c2ccc3c(N)ncnn23)[C@H](O)[C@@H]1O" has half-life at 2 µM at least equal to 50 s.
condition met

Quick check, half-life at 2 µM >= 50 s? "CC(C)OC(=O)OC[C@H]1O[C@@](C#N)(c2ccc3c(NC(=O)C(C)C)ncnn23)[C@H](OC(=O)C(C)C)[C@@H]1OC(=O)C(C)C"
condition met

Check the entry "N#C[C@@]1(c2ccc3c(N)ncnn23)O[C@H](COC(=O)OC2CCC2)[C@@H](O)[C@H]1O" : does half-life at 2 µM equal or exceed 50 s?
condition not met

Reported half-life at 2 µM reaches at least 50 s for "CCOC(=O)OC[C@H]1O[C@@](C#N)(c2ccc3c(NC(=O)OCc4ccccc4)ncnn23)[C@H](O)[C@@H]1O" ?
condition met

Hello, I need to know if "CC(C)OC(=O)OC[C@H]1O[C@@](C#N)(c2ccc3c(N)ncnn23)[C@H](OC(=O)C(C)C)[C@@H]1OC(=O)C(C)C" has measured half-life at 2 µM not below 50 s. Thanks!
condition met

Quick check, half-life at 2 µM >= 50 s? "CCOC(=O)OC[C@H]1O[C@@](C#N)(c2ccc3c(N)ncnn23)[C@H](OC(C)=O)[C@@H]1OC(C)=O"
condition not met

Record "COC(C)(C)COC(=O)OC[C@H]1O[C@@](C#N)(c2ccc3c(N)ncnn23)[C@H](O)[C@@H]1O" ; criterion: half-life at 2 µM no lower than 50 s. Met?
condition met

---

Tested on: Caco-2 cells (clone C2BBe1)
Test: CACO-2 permeability
Type: in vitro ADME
Parameters: unit not given here
Conditions: apical to basolateral; donor pH 6.5, receiver pH 7.4
observable: DM Caco2 A to B
Answer as a number with no unit attached.

State, in one line, measured DM Caco2 A to B of CC(C)C(C)(C)OC(=O)OC[C@H]1O[C@@](C#N)(c2ccc3c(N)ncnn23)[C@H](O)[C@@H]1O [Compound 68]
0.98

Assign DM Caco2 A to B to the following record: CCOC(=O)OC[C@H]1O[C@@](C#N)(c2ccc3c(N)ncnn23)[C@H](OC(C)=O)[C@@H]1OC(C)=O [Compound 129]
3.505

Entry CC1(OC(=O)OC[C@H]2O[C@@](C#N)(c3ccc4c(N)ncnn34)[C@H](O)[C@@H]2O)CCCCCC1 [Compound 55] needs its DM Caco2 A to B filled in; supply it.
0.38

Quick one: give measured DM Caco2 A to B for CN1[C@@H]2CC[C@H]1C[C@@H](OC(=O)OC[C@H]1O[C@@](C#N)(c3ccc4c(N)ncnn34)[C@H](O)[C@@H]1O)C2 [Compound 156]
0.12

Entry COc1ccc(OC(=O)OC[C@H]2O[C@@](C#N)(c3ccc4c(N)ncnn34)[C@H](O)[C@@H]2O)cc1 [Compound 111] needs its DM Caco2 A to B filled in; supply it.
0.625

Please list DM Caco2 A to B recorded for the compound CC12CCC(C1)C(C)(C)C2OC(=O)OC[C@H]1O[C@@](C#N)(c2ccc3c(N)ncnn23)[C@H](O)[C@@H]1O (mixture of isomers) [Compound 48]
6.19
